# Test system: Setaria viridis
# Assay Details: Pre-emergence test
# Type: in vivo
# Condition Details: 0.100 kg/ha, 3 weeks after treatment
Observation Type: Assessment (pre-emergence application) SETVI

Cc1cc(Oc2cc(C(F)(F)F)nn2C)nc(C#Cc2ccccc2)n1	4 (4-Injury)
COc1cc(C#Cc2ccccc2)nc(Oc2cc(C(F)(F)F)nn2C)c1	8 (8-Approaching complete kill)
Cc1cc(C#Cc2ccccc2)nc(Oc2cc(C(F)(F)F)nn2C)c1	8 (8-Approaching complete kill)
Cn1nc(C(F)(F)F)cc1Oc1cccc(C#Cc2ccccc2)n1	6 (6-Herbicidal effect)
Cc1cc(C#Cc2ccc(F)cc2)nc(Oc2cc(C(F)(F)F)nn2C)c1	8 (8-Approaching complete kill)
